B1: KLHL12 (parent)
chain: SMTTPRCYVGATVLRGRLYAIAGY

# Variants of: B1
# Measurement Description: protein stability index of a GFP-peptide fusion (GPS, HEK-293T) (PSI 1-6); higher = more stable;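 further: lentivirally expressed fusions sorted by FACS into six bins by GFP to DsRed ratio, PSI derived from sequencing read proportions per bin multiplied by bin number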
# Assay Setup: c terminus: a fixed tail appended
Quantity Measured: protein stability index

INSERT INTO measurements (sequence_entry, reported_result) VALUES
  ('SMTTPRCYVGATVLRGRDYAIAGY [L18D]', 1.94),
  ('SMTTPRCYVGATVLRGELYAIAGY [R17E]', 1.68),
  ('SMTTPRCYVEATVLRGRLYAIAGY [G10E]', 3.01),
  ('SMTTPREYVGATVLRGRLYAIAGY [C7E]', 1.47),
  ('SMTTPRCYVGAIVLRGRLYAIAGY [T12I]', 2.46),
  ('SMTTSRCYVGATVLRGRLYAIAGY [P5S]', 3.27),
  ('SMTTPRCYVGATVLRGRLYAIQGY [A22Q]', 1.52),
  ('SMTTPRCYVGATVLSGRLYAIAGY [R15S]', 1.63),
  ('SMTTPRCYVGATVERGRLYAIAGY [L14E]', 1.93),
  ('SMTTPRCYVGATVLRTRLYAIAGY [G16T]', 2.04),
  ('SMTTPRCYVGATVLRGRLYAIAWY [G23W]', 2.54),
  ('SMTTPRCYVGATVLRGRMYAIAGY [L18M]', 1.72),
  ('SMTTPRCYLGATVLRGRLYAIAGY [V9L]', 3.27),
  ('SMTTPRCEVGATVLRGRLYAIAGY [Y8E]', 1.06),
  ('GMTTPRCYVGATVLRGRLYAIAGY [S1G]', 2.39),
  ('RMTTPRCYVGATVLRGRLYAIAGY [S1R]', 3.81),
  ('SMTTPRCYVGATVLRGRLYMIAGY [A20M]', 2.23),
  ('SMTTPRCYVGATVLRGRLYAMAGY [I21M]', 1.28),
  ('SMTTPRCYVGATVWRGRLYAIAGY [L14W]', 3.9),
  ('SMTHPRCYVGATVLRGRLYAIAGY [T4H]', 3.03),
  ('SMTTPRCYVGAMVLRGRLYAIAGY [T12M]', 3.47),
  ('SMTTPRCYVGADVLRGRLYAIAGY [T12D]', 1.85),
  ('SMTTPRKYVGATVLRGRLYAIAGY [C7K]', 2.18),
  ('SMTTPRCYVGATVLRGRLYAIAGR [Y24R]', 1.95),
  ('SMTTPRRYVGATVLRGRLYAIAGY [C7R]', 2.43),
  ('SMTTPRCYVGATVLRGRLHAIAGY [Y19H]', 1.72),
  ('SMTTPRCYVGATVLRNRLYAIAGY [G16N]', 1.98),
  ('SMTTPRCIVGATVLRGRLYAIAGY [Y8I]', 3.73),
  ('SMTIPRCYVGATVLRGRLYAIAGY [T4I]', 2.44),
  ('SMTTPRCYVPATVLRGRLYAIAGY [G10P]', 1.91),
  ('SMTTPRCYVGATVLRGRLYAIAAY [G23A]', 3.75),
  ('SMTTPRCYVGATVLRGRLYAIAGQ [Y24Q]', 2.45),
  ('HMTTPRCYVGATVLRGRLYAIAGY [S1H]', 1.51),
  ('SMTTPRCYVGATSLRGRLYAIAGY [V13S]', 1.88),
  ('SMTTPRCYVGCTVLRGRLYAIAGY [A11C]', 2.29),
  ('SMTTPRCYVGQTVLRGRLYAIAGY [A11Q]', 2.32),
  ('SMTTPRCYVGATVLRDRLYAIAGY [G16D]', 1.58),
  ('SMTTPRQYVGATVLRGRLYAIAGY [C7Q]', 1.71),
  ('SMTTPICYVGATVLRGRLYAIAGY [R6I]', 1.55),
  ('SMTTPRCYVGATVLRGRLQAIAGY [Y19Q]', 2.11),
  ('SMTTPRCYVGATVLRGRLYAKAGY [I21K]', 1.57),
  ('SRTTPRCYVGATVLRGRLYAIAGY [M2R]', 2.35),
  ('SMTTPRCYVGATVLRGRLSAIAGY [Y19S]', 2),
  ('SMTYPRCYVGATVLRGRLYAIAGY [T4Y]', 2.75),
  ('SMTFPRCYVGATVLRGRLYAIAGY [T4F]', 2.12),
  ('SMTTPRCYVGATVLRGRLYAQAGY [I21Q]', 1.67),
  ('SMTTPRCYVTATVLRGRLYAIAGY [G10T]', 3.52),
  ('SMTTPRCYVGATVLRGRLMAIAGY [Y19M]', 1.79),
  ('SMTTPRCYVGATVLRGRLYYIAGY [A20Y]', 2.41),
  ('SMTTPRCYVGATVLRKRLYAIAGY [G16K]', 1.77),
  ('SMTTPRCYVGATVLRGRLYAINGY [A22N]', 1.3),
  ('SMTTPRVYVGATVLRGRLYAIAGY [C7V]', 2.13),
  ('SMNTPRCYVGATVLRGRLYAIAGY [T3N]', 1.46),
  ('CMTTPRCYVGATVLRGRLYAIAGY [S1C]', 3.04),
  ('SMTTPRCYVKATVLRGRLYAIAGY [G10K]', 2.11),
  ('SMTTPRCYVWATVLRGRLYAIAGY [G10W]', 1.11);
